assay: compound fluorescence in GFP channel, mTEFS cells – imaging, mTEFS fibroblasts, cherry-pick, artefact control for X-chromosome reactivation project, dose response (AID 743396); details: mTEFS fibroblasts autofluorescence, GFP-channel imaging, 3 days; at 19.5 µM (top of the series); cells pretreated with 5-aza-dC;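 further: raw share of Hoechst-counted cells scored GFP positive without control normalization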
MEASUREMENT_LABEL: % fluorescent cells increase (%)
One number for each entry, in %.

Data request: Please list % fluorescent cells increase recorded for the compound CC(Sc1nnc(-c2ccncc2)n1C)C(=O)Nc1ccc(N2CCOCC2)cc1 (stereo unspecified)
Data returned: 0

Data request: Please list % fluorescent cells increase recorded for the compound COc1ccc(NC(=O)N(C)[C@H]2C[C@H]3c4[nH]c5ccc(-c6ccc(OC)cc6)cc5c4CCN3C(=O)[C@H]2[C@H](C)O)cc1
Data returned: 0.507

Data request: Please list % fluorescent cells increase recorded for the compound COc1ccccc1/C=C/C(=O)OCC(=O)NC(=O)NC1CCCC1
Data returned: 0

Data request: Please list % fluorescent cells increase recorded for the compound CCN(CC)CCCN=Cc1c(O)n(-c2cccc(C)c2)c(=O)c2ccccc12
Data returned: -0.011

Data request: Please list % fluorescent cells increase recorded for the compound Cc1ccnc(NS(=O)(=O)c2ccc3c(c2)CCO3)c1
Data returned: 0.175

Kindly consider the entry below.
Data request: Please list % fluorescent cells increase recorded for the compound C/C(=N\NC(=O)CC1N=C(Cc2ccccc2)NNC1=O)c1ccc(Br)cc1 (stereo unspecified)
Data returned: 0.037

###

experiment: compound fluorescence in GFP channel, mTEFS cells – imaging, mTEFS fibroblasts, cherry-pick, artefact control for X-chromosome reactivation project, dose response (AID 743396); settings: mTEFS fibroblasts autofluorescence, GFP-channel imaging, 3 days; at 19.5 µM (top of the series); cells pretreated with 5-aza-dC
For each entry below, report its % fluorescent cells increase value.
Answers are plain numbers, in %.

Data request: Please list % fluorescent cells increase recorded for the compound CCOCCCn1c(=NC(C)=O)c(C#N)cc2c(=O)n3cccc(C)c3nc21
Data returned: 0.498

Data request: Please list % fluorescent cells increase recorded for the compound CCCCCCCCN1C(=O)[C@H](CC(=O)N2CCSCC2)C[C@@]2(C(=O)OCC)CCCC=C12
Data returned: 0.056

Data request: Please list % fluorescent cells increase recorded for the compound CC1=C(Cl)C2=NS(=O)(=O)CCN2C=C1Cl
Data returned: 1.51

Data request: Please list % fluorescent cells increase recorded for the compound CC(C)(C=O)C1=CC(=O)c2ccccc2C1=O
Data returned: 0

Data request: Please list % fluorescent cells increase recorded for the compound Cc1ccc(NC(=O)c2ccc(=O)[nH]c2)cc1S(=O)(=O)N1CCCCCC1
Data returned: 0.615

Kindly consider the entry below.
Data request: Please list % fluorescent cells increase recorded for the compound COCCNC(=O)CSc1nc2scc(-c3ccccc3)c2c(=O)[nH]1
Data returned: 0.106

###

For each entry below, report its % fluorescent cells increase value.
assay: compound fluorescence in GFP channel, mTEFS cells – imaging, mTEFS fibroblasts, cherry-pick, artefact control for X-chromosome reactivation project, dose response (AID 743396); conditions: mTEFS fibroblasts autofluorescence, GFP-channel imaging, 3 days; at 19.5 µM (top of the series); cells pretreated with 5-aza-dC
Numbers only, in %.

Solved cases (5 shown):
Data request: Please list % fluorescent cells increase recorded for the compound COc1ccc(N=Nc2ccc(O)c(P(=O)(c3ccccc3)c3ccccc3)c2)cc1
Data returned: 0

Data request: Please list % fluorescent cells increase recorded for the compound Cc1nn(-c2ccccc2)c(C)c1N
Data returned: 0

Data request: Please list % fluorescent cells increase recorded for the compound CC(C)CC(=O)Nc1c2c(nn1-c1ccc(F)cc1)CSC2
Data returned: 0.007

Data request: Please list % fluorescent cells increase recorded for the compound O=C(c1ccccc1Cl)N1CCSCCS1(=O)=O
Data returned: 0

Data request: Please list % fluorescent cells increase recorded for the compound CC[N+]1=C(C)C(C)(C)c2cc(C)ccc21
Data returned: 0.089

List % fluorescent cells increase for every entry below, keeping the order given.
1. CC(C)C(NC(=O)c1ccc(F)cc1)C(=O)NCC1CCCO1 (stereo unspecified)
2. Cc1ccc(O)c(N=Nc2ccc(S(=O)(=O)N3CCCC3)cc2)c1

Data returned:
0.01
0

###

experiment: compound fluorescence in GFP channel, mTEFS cells – imaging, mTEFS fibroblasts, cherry-pick, artefact control for X-chromosome reactivation project, dose response (AID 743396); settings: mTEFS fibroblasts autofluorescence, GFP-channel imaging, 3 days; at 19.5 µM (top of the series); cells pretreated with 5-aza-dC;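 further: raw share of Hoechst-counted cells scored GFP positive without control normalization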
For each entry below, report its % fluorescent cells increase value.
Give bare numbers, in %.

Solved cases (8 shown):
Data request: Please list % fluorescent cells increase recorded for the molecule CC(NC(=O)c1ccccc1)C(=O)N/N=C/c1ccccc1 (stereo not given)
Data returned: 0

Data request: Please list % fluorescent cells increase recorded for the molecule C[C@H](NC(=O)C[C@@H]1CC[C@H](NC(=O)Cc2ccccn2)[C@@H](CO)O1)c1ccccc1
Data returned: 0.048

Data request: Please list % fluorescent cells increase recorded for the molecule COc1cc(/C=N/Nc2nc(N3CCCC3)nc(N3CCCC3)n2)ccc1OCc1ccccc1F
Data returned: 0.025

Data request: Please list % fluorescent cells increase recorded for the molecule O=C(NNC(=O)c1ccccc1Cl)c1ccccc1Cl
Data returned: 0.057

Data request: Please list % fluorescent cells increase recorded for the molecule Cc1ccc(-c2ccc3c(c2)O[C@@H](CN(C)Cc2ccncc2)[C@@H](C)CN([C@@H](C)CO)S3(=O)=O)cc1
Data returned: 0.037

Data request: Please list % fluorescent cells increase recorded for the molecule COc1ccc(C)c(-n2c(=O)n(Cc3ccccc3)c(=O)c3[nH]cnc32)c1
Data returned: 0.074

Data request: Please list % fluorescent cells increase recorded for the molecule CNc1ncnc(Sc2ccc(Cl)cc2)c1[N+](=O)[O-]
Data returned: 0

Data request: Please list % fluorescent cells increase recorded for the molecule C/C(=N\NC(=O)c1ccccc1Cl)c1ccccn1
Data returned: 0

List % fluorescent cells increase for every entry below, keeping the order given.
1. COc1ccc(-c2ccc(C#N)c(SCC(=O)NCc3ccco3)n2)cc1OC
2. COc1ccc(COc2ccccc2C(=O)NCc2ccccc2)cc1F

Data returned:
0
0

###

For each entry below, report its % fluorescent cells increase value.
experiment: compound fluorescence in GFP channel, mTEFS cells – imaging, mTEFS fibroblasts, cherry-pick, artefact control for X-chromosome reactivation project, dose response (AID 743396); conditions: mTEFS fibroblasts autofluorescence, GFP-channel imaging, 3 days; at 19.5 µM (top of the series); cells pretreated with 5-aza-dC;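 further: raw share of Hoechst-counted cells scored GFP positive without control normalization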
Numbers only, in %.

Solved cases (5 shown):
Data request: Please list % fluorescent cells increase recorded for the compound O=C(NNC(=O)c1cc2ccccc2o1)c1ccc(Cl)cc1
Data returned: 0.148

Data request: Please list % fluorescent cells increase recorded for the compound COc1ccc(/C=C2\CCc3ccccc3C2=O)cc1CN1CCOCC1
Data returned: -0.007

Data request: Please list % fluorescent cells increase recorded for the compound C#Cc1cc(N2CCN(C(=O)c3ccoc3)CC2)n2nc(-c3cccc(Cl)c3)cc2n1
Data returned: 7.21

Data request: Please list % fluorescent cells increase recorded for the compound COc1ccccc1N=Nc1c(C)[nH]n(-c2ccccc2)c1=O
Data returned: 0

Data request: Please list % fluorescent cells increase recorded for the compound Oc1ccc(Cl)cc1C=Nc1ccc2c3c(cccc13)CC2
Data returned: 0.216

List % fluorescent cells increase for every entry below, keeping the order given.
1. F[B-](F)(F)c1cnc2ccccc2c1
2. COc1ccccc1C(=O)Nc1nnc(S(=O)(=O)N2CCCCCC2)s1
3. O=C(O)/C=C/C(=O)Nc1ccc(-n2nccc2C(F)(F)F)cc1
4. O=[N+]([O-])c1ccc(/C=N/NC(=S)Nc2ccc(Cl)cc2Cl)s1
5. Cn1c2ccccc2c2cnn(CC(=O)Nc3ccccc3Br)c(=O)c21
6. O=C(CC1CC1)N1CC(=O)N2[C@@H](CO)[C@H](c3ccc(C#Cc4ccc(F)cc4)cc3)[C@@H]2C1

Data returned:
1: 0.137; 2: 0.055; 3: 1.85; 4: 0.614; 5: -0.007; 6: -0.043

###

assay: compound fluorescence in GFP channel, mTEFS cells – imaging, mTEFS fibroblasts, cherry-pick, artefact control for X-chromosome reactivation project, dose response (AID 743396); details: mTEFS fibroblasts autofluorescence, GFP-channel imaging, 3 days; at 19.5 µM (top of the series); cells pretreated with 5-aza-dC;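 further: raw share of Hoechst-counted cells scored GFP positive without control normalization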
Activity calls are given as the source filed them.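 The calls were made as follows: active = fitted curve reaches a 40% rise in fluorescent cells at or below the top valid dose; inactive = opposite-direction effect, or the rest.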
For each entry below, report its % fluorescent cells increase value.

Solved cases (4 shown):
Data request: Please list % fluorescent cells increase recorded for the compound NS(=O)(=O)c1cccc(NC(=O)COC(=O)Cc2ccc(S(=O)(=O)N3CCOCC3)s2)c1
Data returned: 0% (inactive)

Data request: Please list % fluorescent cells increase recorded for the compound Cc1ccc(C(=O)c2oc3ccccc3c2NC(=O)c2cc(-c3ccccc3O)n[nH]2)cc1
Data returned: 9.74% (inactive)

Data request: Please list % fluorescent cells increase recorded for the compound C[C@@H]1CN([C@@H](C)CO)C(=O)c2cc(NS(=O)(=O)c3ccccc3)ccc2O[C@@H](C)CCCCO[C@@H]1CN(C)Cc1ccc2c(c1)OCO2
Data returned: 0% (inactive)

Data request: Please list % fluorescent cells increase recorded for the compound COC(=O)c1cnn(-c2ccccc2)c1N
Data returned: 0.008% (inactive)

Kindly consider the entry below.
Data request: Please list % fluorescent cells increase recorded for the compound Cc1ccc(S(=O)(=O)N2CC3(O)CN(C(=O)OC(C)C)N(C(=O)OC(C)C)CC3(OC(=O)NCc3ccccc3)C2)cc1 (stereo not given)
Data returned: 0.003% (inactive)
